Recorded measurements of GI50, one per entry
tested on: MDA-MB-468 breast; experiment: NCI tumour cell line growth inhibition, 48 h
Reported endpoint: GI50

>>> result("COc1ccc(/C=C/C(=O)c2ccc(Nc3ccnc4cc(Cl)ccc34)cc2)cc1")
"> 100 µM"
>>> result("CC/C=C\\C/C=C\\C[C@H]1C/C=C2/C(=O)C=C[C@H]2C/C=C\\CCC(=O)O1")
"1.86 µM"
>>> result("CCCN1CCN(c2ccc3nc(-c4ccc5nc(-c6ccc(OCC)c(OCC)c6)[nH]c5c4)[nH]c3c2)CC1")
"0.369 µM"
>>> result("Nc1c(C(=O)Nc2ccccc2)sc2nc3c(cc12)CCCC3")
"0.317 µM"
>>> result("COc1cc(OC)cc(-c2cncn2-c2ccc(-c3nc4cc(OC)c(OC)c(OC)c4s3)cc2)c1")
"10.7 µM"
